- TGT: human TGR5 (Homo sapiens)
- Construct: expressed in transfected cells; host or cells: HEK293
- Sequence (Q8TDU6 whole entry): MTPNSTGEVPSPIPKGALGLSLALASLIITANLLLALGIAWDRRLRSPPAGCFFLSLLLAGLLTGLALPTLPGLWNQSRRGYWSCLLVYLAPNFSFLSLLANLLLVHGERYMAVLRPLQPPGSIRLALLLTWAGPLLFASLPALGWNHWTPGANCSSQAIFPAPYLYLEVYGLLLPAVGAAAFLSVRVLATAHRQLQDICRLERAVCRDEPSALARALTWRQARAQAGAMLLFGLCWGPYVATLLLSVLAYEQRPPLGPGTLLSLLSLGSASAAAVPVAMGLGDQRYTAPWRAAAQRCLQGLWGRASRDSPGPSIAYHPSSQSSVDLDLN
- PROTOCOL: Cell-based TGR5 assay (cAMP generation, HTRF)
- CONDITION_LABEL: HEK293 cells stably transfected with human TGR5; cAMP by HTRF; 30 minutes at 37° C.; read-out: pEC50 Human TGR5 (converted)
MEASURE: EC50

Reference set (2 entries):
- COMPOUND: "CC(CCCN(C(=O)[C@@H](O)[C@@H](O)[C@H](O)[C@@H](O)CO)C1CCOCC1)c1ccc(Cl)c(CNC2(c3cnccc3-c3ccccc3OC3CC3)CC2)c1 (stereo partly drawn)"
  RECORDED_VALUE: "126 to 1000 nM"
- COMPOUND: "Cc1ccc(C(C)CCCC(=O)N(C[C@H](O)[C@@H](O)[C@H](O)[C@H](O)CO)C2CCOCC2)cc1CNC1(c2cnccc2-c2ccccc2OC2CC2)CC1 (stereo partly drawn)"
  RECORDED_VALUE: "< 100 nM"

Exercise: Record "CS(=O)(=O)CCCN(CCCSc1ccc(Cl)c(CNC2(c3cnccc3-c3ccccc3OC3CC3)CC2)c1)C(=O)[C@@H](O)[C@@H](O)[C@H](O)[C@@H](O)CO" : what is its EC50 with human TGR5 (Homo sapiens)?
Key: 126 to 1000 nM

Exercise: Record O=C(O)CCC(=O)N(CCCCc1cc(Cl)c(COC2(c3cnccc3-c3ccccc3OC3CC3)CC2)cc1Cl)C[C@H](O)[C@@H](O)[C@H](O)[C@H](O)CO (stereo in doubt) : what is its EC50 with human TGR5 (Homo sapiens)?
Key: < 100 nM

Exercise: Record "CN(C[C@H](O)[C@@H](O)[C@H](O)[C@H](O)CO)C(=O)CCCSc1ccc(Cl)c(COC2(c3cnccc3-c3ccccc3OC3CC3)CC2)c1" : what is its EC50 with human TGR5 (Homo sapiens)?
Key: < 100 nM

Exercise: Record CCC(OCc1cc(Cl)ccc1Cl)c1cnccc1-c1ccccc1OC1CC1 (stereo not drawn) : what is its EC50 with human TGR5 (Homo sapiens)?
Key: 1260 to 10000 nM
